- tested system: Beta-2 adrenergic receptor (Homo sapiens, UniProt P07550)
- Sequence (P07550 whole entry): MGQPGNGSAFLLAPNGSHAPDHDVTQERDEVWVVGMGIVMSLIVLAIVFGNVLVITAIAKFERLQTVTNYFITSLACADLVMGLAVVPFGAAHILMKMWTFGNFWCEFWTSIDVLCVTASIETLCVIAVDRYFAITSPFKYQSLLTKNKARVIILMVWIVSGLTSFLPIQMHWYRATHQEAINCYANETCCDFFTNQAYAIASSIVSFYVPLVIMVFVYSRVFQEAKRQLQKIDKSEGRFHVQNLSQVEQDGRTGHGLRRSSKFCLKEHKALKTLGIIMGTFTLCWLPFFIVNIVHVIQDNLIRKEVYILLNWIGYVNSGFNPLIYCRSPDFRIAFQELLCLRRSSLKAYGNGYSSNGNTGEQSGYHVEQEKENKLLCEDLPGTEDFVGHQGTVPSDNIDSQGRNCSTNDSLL
- method: Agonist activity at human adrenergic beta2 receptor expressed in H292 cells assessed as intracellular cAMP accumulation after 1 hr
recorded metric: EC50 (nM)
Numeric only. Scale: nM

Guide cases for EC50, answers given:
[
  {
    "structure string": "CCCCN(CCNC[C@H](O)c1ccc(O)c2[nH]c(=O)sc12)C(=O)CCOCCc1ccccc1",
    "units symbol": "nM",
    "EC50": 0.794
  },
  {
    "structure string": "O=C(CCOCCc1ccccc1)NCCNCCc1ccc(O)c2nc(O)sc12",
    "units symbol": "nM",
    "EC50": 1.58
  },
  {
    "structure string": "CCCCN(CCNCCc1ccc(O)c2[nH]c(=O)sc12)C(=O)CCOCCc1ccccc1",
    "units symbol": "nM",
    "EC50": 1.58
  }
]

According to the records, this compound CN(CCNCCc1ccc(O)c2[nH]c(=O)sc12)C(=O)CCOCCc1ccccc1 displays EC50 of 0.501

According to the records, this compound CCCN(CCNCCc1ccc(O)c2[nH]c(=O)sc12)C(=O)CCOCCc1ccccc1 displays EC50 of 7.94

According to the records, this compound CC(C)(CNCCc1ccc(O)c2[nH]c(=O)sc12)NC(=O)CCOCCc1ccccc1 displays EC50 of 7.94

According to the records, this compound CC(C)N(CCNCCc1ccc(O)c2[nH]c(=O)sc12)C(=O)CCOCCc1ccccc1 displays EC50 of 7.94

According to the records, this compound CCN(CCNCCc1ccc(O)c2[nH]c(=O)sc12)C(=O)CCOCCc1ccccc1 displays EC50 of 1

According to the records, this compound CCCCN(CCN(C)CCc1ccc(O)c2[nH]c(=O)sc12)C(=O)CCOCCc1ccccc1 displays EC50 of 126
